MEASUREMENT DESCRIPTION: Volume of distribution at steady state in Sprague-Dawley rat at 1.29 mg/kg, iv
Format: ADME, organism-based
Parameters: dose 1.29 mg/kg, route intravenous
RUN PARAMETERS: in vivo, read-out: Vdss
ASSAY METRIC: Vd (L/kg)

| CHEMICAL STRING | ASSAY METRIC | NUMERIC VALUE |
| --- | --- | --- |
| CC(C)(C)c1ccc(NC(=O)c2c[nH]c3ccccc3c2=O)cc1O | Vd | 2.9 |

---

MEASUREMENT DESCRIPTION: Volume of distribution at steady state in Sprague-Dawley rat at 2.49 mg/kg, iv
Assay type: ADME, organism-based
Design: dose 2.49 mg/kg, route intravenous
RUN PARAMETERS: in vivo, read-out: Vdss

| CHEMICAL STRING | Vd |
| --- | --- |
| CC(C)(C)c1cc2cc[nH]c2cc1NC(=O)c1c[nH]c2ccccc2c1=O | 3.3 L/kg |

---

MEASUREMENT DESCRIPTION: Volume of distribution at steady state in mouse at 3 mg/kg, iv
Format: ADME, organism-based
Parameters: dose 3 mg/kg, route intravenous
RUN PARAMETERS: in vivo, read-out: Vdss

| CHEMICAL STRING | Vd (L/kg) |
| --- | --- |
| CC(C)(C)c1cc(C(C)(C)C)c(NC(=O)c2c[nH]c3ccccc3c2=O)cc1O | 2.8 |

---

STUDY SYSTEM: Cystic fibrosis transmembrane conductance regulator (Homo sapiens, UniProt P13569, F508DEL)
Sequence (P13569 as listed by the source): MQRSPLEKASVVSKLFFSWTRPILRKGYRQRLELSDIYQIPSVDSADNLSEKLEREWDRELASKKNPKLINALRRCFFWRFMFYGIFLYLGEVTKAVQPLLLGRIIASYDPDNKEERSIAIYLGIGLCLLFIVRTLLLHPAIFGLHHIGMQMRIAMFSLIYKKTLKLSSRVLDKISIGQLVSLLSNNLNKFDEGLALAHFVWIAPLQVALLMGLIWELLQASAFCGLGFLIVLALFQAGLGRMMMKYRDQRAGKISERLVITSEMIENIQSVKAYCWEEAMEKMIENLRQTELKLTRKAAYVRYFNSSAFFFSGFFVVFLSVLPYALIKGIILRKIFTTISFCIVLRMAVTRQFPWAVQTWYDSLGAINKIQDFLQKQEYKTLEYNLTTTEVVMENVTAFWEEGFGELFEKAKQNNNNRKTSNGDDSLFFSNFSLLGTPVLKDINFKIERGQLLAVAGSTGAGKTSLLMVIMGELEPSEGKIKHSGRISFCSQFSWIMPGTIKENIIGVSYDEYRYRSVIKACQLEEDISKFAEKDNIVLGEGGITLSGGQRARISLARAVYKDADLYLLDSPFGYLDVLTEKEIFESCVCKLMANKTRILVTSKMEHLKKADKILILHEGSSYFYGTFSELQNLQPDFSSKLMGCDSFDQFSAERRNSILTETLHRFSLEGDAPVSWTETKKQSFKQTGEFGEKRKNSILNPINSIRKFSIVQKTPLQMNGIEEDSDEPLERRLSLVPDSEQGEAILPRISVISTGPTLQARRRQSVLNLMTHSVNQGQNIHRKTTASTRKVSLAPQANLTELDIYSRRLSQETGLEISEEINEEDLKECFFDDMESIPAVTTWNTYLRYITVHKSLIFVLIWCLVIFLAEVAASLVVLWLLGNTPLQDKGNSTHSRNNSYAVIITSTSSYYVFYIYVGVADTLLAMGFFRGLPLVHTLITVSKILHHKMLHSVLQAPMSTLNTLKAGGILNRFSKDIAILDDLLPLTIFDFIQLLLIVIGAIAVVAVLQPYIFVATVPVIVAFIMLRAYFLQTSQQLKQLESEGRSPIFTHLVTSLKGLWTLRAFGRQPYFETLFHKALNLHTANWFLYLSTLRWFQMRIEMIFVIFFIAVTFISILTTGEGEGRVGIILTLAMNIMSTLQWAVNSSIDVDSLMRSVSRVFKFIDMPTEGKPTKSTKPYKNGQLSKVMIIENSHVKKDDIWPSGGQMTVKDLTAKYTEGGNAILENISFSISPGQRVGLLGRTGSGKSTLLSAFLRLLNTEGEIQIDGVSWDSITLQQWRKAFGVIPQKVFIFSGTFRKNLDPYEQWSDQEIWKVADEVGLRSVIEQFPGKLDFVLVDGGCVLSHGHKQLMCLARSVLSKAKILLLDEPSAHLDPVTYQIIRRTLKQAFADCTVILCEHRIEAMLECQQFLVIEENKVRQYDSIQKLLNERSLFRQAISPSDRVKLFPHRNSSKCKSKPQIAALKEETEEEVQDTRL
MEASUREMENT DESCRIPTION: Potentiation of human CFTR F508del mutant expressed in mouse NIH-3T3 cells after 30 mins by fluorescent voltage sensing optical assay
Measured EC50, listed per entry for reference.

| CHEMICAL STRING | EC50 / nM |
| --- | --- |
| O=C(Nc1ccc2cn[nH]c2c1)c1c[nH]c2ccccc2c1=O | 5600 |
| CC(C)(C)c1c[nH]c2cc(NC(=O)c3c[nH]c4ccccc4c3=O)ccc12 | 9 |
| CC(C)(C)c1cc(C(F)(F)F)c(NC(=O)c2c[nH]c3ccccc3c2=O)cc1O | 3 |
| CC(C)c1ccc(NC(=O)c2c[nH]c3ccccc3c2=O)cc1 | 200 |
| O=C(c1ccc2ccccc2c1O)N(Cc1ccccc1)Cc1ccccc1 | 3500 |
| O=C(Nc1ccc2ccccc2c1)c1c[nH]c2ccccc2c1=O | 800 |
| O=C(c1cnc2ccccc2c1)N(Cc1ccccc1)Cc1ccccc1 | 16000 |
| CCc1ccc(NC(=O)c2c[nH]c3ccccc3c2=O)cc1 | 800 |
| CC(C)(C)c1cc(F)c(NC(=O)c2c[nH]c3ccccc3c2=O)cc1O | 2 |
| CC(C)(C)c1cc(C(C)(C)C)c(NC(=O)c2c[nH]c3ccccc3c2=O)cc1O | 3 |
| O=C(Nc1ccc2c(c1)NCC2)c1c[nH]c2ccccc2c1=O | 400 |
| CC(C)(C)c1cc2cc[nH]c2cc1NC(=O)c1c[nH]c2ccccc2c1=O | 11 |
| O=C(c1c[nH]c2ccccc2c1=O)N(Cc1ccccc1)Cc1ccccc1 | 2100 |
| CCc1ccc(NC(=O)c2c[nH]c3ccccc3c2=O)cc1N | 1700 |
| CC(C)(C)c1ccc(NC(=O)c2c[nH]c3ccccc3c2=O)cc1CO | 100 |
| COC(=O)Nc1cc(NC(=O)c2c[nH]c3ccccc3c2=O)ccc1C(C)(C)C | 3500 |
| CCCc1ccc(NC(=O)c2c[nH]c3ccccc3c2=O)cc1N | 400 |
| Cc1ccc(NC(=O)c2c[nH]c3ccccc3c2=O)cc1N | 6000 |
| O=C(Nc1ccc2[nH]ccc2c1)c1c[nH]c2ccccc2c1=O | 6100 |

---

System: Cystic fibrosis transmembrane conductance regulator (Homo sapiens), P13569 [F508del]
Sequence (P13569 as listed by the source): as above
MEASUREMENT DESCRIPTION: Potentiation of human CFTR F508del mutant expressed in mouse NIH-3T3 cells at 30 uM after 30 mins by fluorescent voltage sensing optical assay relative to VRT-532
Type: cell-based
RUN PARAMETERS: NIH3T3

| CHEMICAL STRING | VALUE UNIT | Activity |
| --- | --- | --- |
| CC(C)(C)c1ccc(NC(=O)c2c[nH]c3ccccc3c2=O)cc1CN | % | 20 |
| O=c1c(CNc2ccc3cc[nH]c3c2)c[nH]c2ccccc12 | % | 1 |
| CC(=O)Nc1cc(NC(=O)c2c[nH]c3ccccc3c2=O)ccc1C(C)(C)C | % | 24 |
| O=C(Nc1ccc2nc[nH]c2c1)c1c[nH]c2ccccc2c1=O | % | 12 |
| Cn1cc(C(=O)N(Cc2ccccc2)Cc2ccccc2)c(=O)c2ccccc21 | % | 37 |
| O=C(Nc1ccc2cc[nH]c2n1)c1c[nH]c2ccccc2c1=O | % | 13 |
| O=c1c(S(=O)(=O)Nc2ccc3cc[nH]c3c2)c[nH]c2ccccc12 | % | 1 |

---

MEASUREMENT DESCRIPTION: AUC (0 to infinity) in Sprague-Dawley rat at 1.57 mg/kg, iv
Format: ADME, organism-based
Parameters: time infinity, dose 1.57 mg/kg, route intravenous
RUN PARAMETERS: plasma

| CHEMICAL STRING | VALUE UNIT | AUC(0-inf) |
| --- | --- | --- |
| CC(C)(C)c1cc(F)c(NC(=O)c2c[nH]c3ccccc3c2=O)cc1O | µg·h/mL | 0.52 |

---

MEASUREMENT DESCRIPTION: Volume of distribution at steady state in beagle dog at 1 mg/kg, iv
Format: ADME, organism-based, Canis lupus familiaris
Design: dose 1 mg/kg, route intravenous
RUN PARAMETERS: in vivo, read-out: Vdss

| CHEMICAL STRING | Vd, L/kg |
| --- | --- |
| O=C(Nc1ccc2cc[nH]c2c1)c1c[nH]c2ccccc2c1=O | 1.6 |
